- Target entity: Wild-type Pgp (Homo sapiens)
- Sequence (P08183 whole entry): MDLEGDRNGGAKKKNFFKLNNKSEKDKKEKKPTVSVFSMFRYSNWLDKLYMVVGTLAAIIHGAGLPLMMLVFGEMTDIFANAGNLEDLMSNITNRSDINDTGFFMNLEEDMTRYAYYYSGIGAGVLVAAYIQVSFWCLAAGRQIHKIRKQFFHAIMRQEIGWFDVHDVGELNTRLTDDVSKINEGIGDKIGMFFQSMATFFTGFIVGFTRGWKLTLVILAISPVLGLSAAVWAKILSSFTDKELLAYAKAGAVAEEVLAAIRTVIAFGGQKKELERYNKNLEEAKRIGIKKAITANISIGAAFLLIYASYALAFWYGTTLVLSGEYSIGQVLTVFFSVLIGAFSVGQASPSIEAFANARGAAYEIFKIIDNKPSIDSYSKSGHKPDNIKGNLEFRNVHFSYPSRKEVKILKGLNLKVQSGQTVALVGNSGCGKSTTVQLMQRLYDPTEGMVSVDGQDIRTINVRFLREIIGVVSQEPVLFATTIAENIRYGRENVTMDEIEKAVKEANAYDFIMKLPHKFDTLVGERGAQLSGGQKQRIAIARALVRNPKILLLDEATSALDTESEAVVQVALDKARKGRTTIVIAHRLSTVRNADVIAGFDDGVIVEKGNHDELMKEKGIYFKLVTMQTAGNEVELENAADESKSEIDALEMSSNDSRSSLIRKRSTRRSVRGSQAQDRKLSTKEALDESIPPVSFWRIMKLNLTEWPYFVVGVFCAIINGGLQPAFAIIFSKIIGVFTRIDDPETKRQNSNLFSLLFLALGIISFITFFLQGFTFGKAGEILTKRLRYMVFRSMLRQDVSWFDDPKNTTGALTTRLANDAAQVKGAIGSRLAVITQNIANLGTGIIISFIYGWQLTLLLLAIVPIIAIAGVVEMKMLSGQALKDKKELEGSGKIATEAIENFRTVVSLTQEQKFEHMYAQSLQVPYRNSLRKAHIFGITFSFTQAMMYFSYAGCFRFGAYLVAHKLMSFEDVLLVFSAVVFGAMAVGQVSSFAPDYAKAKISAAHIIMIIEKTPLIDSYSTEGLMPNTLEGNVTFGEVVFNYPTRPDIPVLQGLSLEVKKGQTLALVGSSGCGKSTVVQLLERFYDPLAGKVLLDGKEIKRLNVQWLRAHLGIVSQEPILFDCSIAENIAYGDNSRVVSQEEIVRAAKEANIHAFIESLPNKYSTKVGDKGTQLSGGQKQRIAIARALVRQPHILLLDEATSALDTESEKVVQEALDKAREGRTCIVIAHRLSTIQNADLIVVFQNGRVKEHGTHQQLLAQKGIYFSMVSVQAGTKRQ
- Test name: UIC2 mAb labeling of permeabilized NIH 3T3 cells: apparent affinity of nucleotide binding
- Run conditions: read-out: predicted KM for ATP-hydrolysis and substrate transport in the absence of UIC2; from Eq. 3 of the kinetic model
Metric: Km

structure_smiles=Nc1ncnc2c1ncn2[C@@H]1O[C@H](COP(=O)(O)OP(=O)(O)OP(=O)(O)O)[C@@H](O)[C@H]1O target_entity="Wild-type Pgp (Homo sapiens)" obs_value="~60 µM"

###

- System: single Walker A mutant Pgps (K433M and K1076M)
- Test name: UIC2 mAb labeling of permeabilized cells, single mutants taken together
- Format: cell-based, human
- Run conditions: estimated with Eq. 7 of the kinetic model; read-out: Kd;ATP, dissociation constant of ATP from inward-facing Pgp
Metric: Kd

structure_smiles=Nc1ncnc2c1ncn2[C@@H]1O[C@H](COP(=O)(O)OP(=O)(O)OP(=O)(O)O)[C@@H](O)[C@H]1O obs_value="~5 mM"
